Just for reference, the DeepSol protein solubility set is where these values come from.

EXPERIMENT_SUMMARY: soluble on expression in E. coli; label from the status in PepcDB or PDB records

# SEQUENCE_ENTRY, soluble on expression in E. coli
rows = [
    ("MDDSTLRRKYPHHEWHAVNEGDSGAFVYQLTGGPEPQPELYAKIAPRAPENSAFDLSGEADRLEWLHRHGIPVPRVVERGADDTAAWLVTEAVPGVAAAEEWPEHQRFAVVEAMAELARALHELPVEDCPFDRRLDAAVAEARRNVAEGLVDLDDLQEERAGWTGDQLLAELDRTRPEKEDLVVCHGDLCPNNVLLDPGTCRVTGVIDVGRLGVADRHADIALAARELEIDEDPWFGPAYAERFLERYGAHRVDKEKLAFYQLLDEFF", "not soluble"),
    ("MGSDKIHHHHHHMPIHLIWGDDAAARDHAIETLIGDVVDQAWSSINLSRLDGADAGQASQALAEARTPPFGSGGRLVLLQRSPFCNACPSELANRFEDVLDLIPETSHLVLCNPNKPDGRLRTTKALQKLVKLKQASEKSFLLPAIWDGAGQQELVERTARDLGLQLEPEATAALVEAIGNDSTRLTAELQKLALHADIRQESATENQSPTLIKAENVAALIEGMATNALQVGDSLLAGHAGEAIARLDALLDAGEPALRIVATLTGQIRGWLWVSLLEQQGERDVNVIAKAAGIGNPKRIYVMRKQLQGRPPQRFLTLLSRLLEVEAALKRGAIPTDAFRDGLLSTP", "not soluble"),
]

---

EXPERIMENT_SUMMARY: soluble on expression in E. coli; label from the status in PepcDB or PDB records

# SEQUENCE_ENTRY, soluble on expression in E. coli
records = [
    ("MERNMKNKNKMLDLMLEAVNNIKDAMPKMQIGAPVRQNIDAGERPCLQGYYTAAELKPVLDRPPQDSNAPGASGKAFKTTNLSVEEQKEKERGEAKHCFNAFASDRISLHRDLGPDTRPPEYVEEYLLFILYHQALQGREG", "not soluble"),
    ("MGSDKIHHHHHHEAKGHQTVKIDTVVSADKQTFLQFPGKVKAAQDISLAFRVSGTISKIHVKDGARVQEGQLLAELDPTDYQVQLDATEAEYQQIKAEAERVMALYKDNGTTPNANDKAVYGLKQITAKYKHHKDQLAYTRLYAPFNGYVQKRLFEAHETIGAGMPVIAMISGGTPEVEINLPAAEYIRREQFDNYHCTFDIYPGETYPLKLISVTPKANANQLYTMRLQVVPGTRAIPSPGMNTMVTILCRTEQENTLSVPTGAILQKEGKAYVFVFHPSSNTVHRQEVSILRLLNNGHSLITSRQLQPGEQIVSSGVHHIEDGEIVKPLSPVTNTNIGGLL", "not soluble"),
    ("AEAAPCETADGTYHIALPEAENPPVLIFLHGHGGEGAATLRNARLVAPLLARGWAVIAPDGQSRAPGRPRSWTFFPGWEGRDEPAFLAQVLGEASARFGLDADRAVLGGFSAGAFMVTYLACATPGAYRAYVPVSGGFWRPQPDRCAGPVHLFQTHGWADPVVPLEGRFLGGGRFQQGDIFAGLELWRQTNGCVEHKPDGFDQTGPFLRRRWQGCSGGSLEFALFPGGHTVPEGWADMMADWVEAL", "not soluble"),
]

---

EXPERIMENT_SUMMARY: soluble on expression in E. coli; label from the status in PepcDB or PDB records
OBSERVATION_TYPE: soluble on expression in E. coli

# SEQUENCE_ENTRY, OBSERVATION_TYPE, DATA_VALUE
rows = [
    ("MGSDKIHHHHHHMIRIKTPSEIEKMKKAGKAVAVALREVRKVIVPGKTAWDVETLVLEIFKKLRVKPAFKGYGGYKYATCVSVNEEVVHGLPLKEKVFKEGDIVSVDVGAVYQGLYGDAAVTYIVGETDERGKELVRVTREVLEKAIKMIKPGIRLGDVSHCIQETVESVGFNVIRDYVGHGVGRELHEDPQIPNYGTPGTGVVLRKGMTLAIEPMVSEGDWRVVVKEDGWTAVTVDGSRCAHFEHTILITENGAEILTKEG", "soluble on expression in E. coli", "soluble"),
    ("MGSDKIHHHHHHMKLILSVESVRFPLTGIGRYTYELASRLQHAEQISDLRLFAGSRFLPELLKPSDQSDAVHGLKRFVQKNALAVEAYRRLMPLLRKRALRGHEDFIYHSTNFYLPPFAGPRVATFHDLSPFTWAHCHTPQIARYLQKELKLTLERADALITVSHHTRKELADYFGWPLERIHAVPLASSPQFHPRTPQALRETLARHGLELGGYSLFVGTIEPRKNIETLLNAYGRLPLALRQRWPLILSGYHGWRSEAIHSRIAQAQQEGWARYLGFVASEDLPLLFAGARLFTFPSHYEGFGLPVLEAMSSGVPVVCSNSSSLPEVAGSAALMCAPDDVEGLTGLLHQGLEDEAWRSAAVQRGLLHAGGFSWERCAQGTVEVYKSVKER", "soluble on expression in E. coli", "not soluble"),
    ("HEHNTIPKGASIEVKVQQLDPVNGNKDVGTVTITESNYGLVFTPDLQGLSEGLHGFHIHENPSCEPKEEEGELTAGLGAGGHWDPKGAKQHGYPWQDDAHLGDLPALTVLHDGTATNPVLAPRLKHLDDVRGHSIMIHTGGDNHSDHPAPLGGGGPRMACGVIK", "soluble on expression in E. coli", "soluble"),
    ("MNWYEKLSEYFPIEEMKSKAHMEALLKERSDIYHKDEGKHHILMFAEFDSFIFVDYLYVSKDARGQGLGGKLIAKLKKKNKPILLEVEPVDEDDTDTEKRLRFYQREHFKHAQSIGYRRRSLATNEVNKIEILYWSPKTESEEEILEAMKQTYENIHTYKDEKWYGESYEKTDEVLEIIDEEKQKNIFDQLS", "soluble on expression in E. coli", "not soluble"),
    ("MIEIAKIGDDFDRWQDLLALIMTSFAYMDGVIDPPSSAYRLTLENLAEKARAEIAFVALDSDELLGCLFCRPEPPASLYVGKLCVSPKAQGKGIGKLLLLQAEALARELALPALRLETRIELLSNHTKFAAWGFVKTAENAHAGYDRTTSIEMTKFLG", "soluble on expression in E. coli", "not soluble"),
    ("MNVQETYLKELKARGYQPDEAQQRAVDRLQLCYDEWVAYKARRSSALRKLLVRPELPRGVYMWGGVGRGKSFLMDAFYSCVPVVRKTRLHFHEFMREVHRQLEELRGRADPLDELARRIAKRYRLICFDEFHVSDVADAMILHRLLDQLFANGVQFVMTSNYRPDLLYPDGLHRDRVLPAIALLQEKLDVLNVDAGIDYRKRAMEQVQAYHTPLGAQANSALRDAFAAVAEAPDESPILHIEHREIRAQRKAGGVVWFDFATLCGGPRSQNDYLEIAARFHTVILADVPKMTPRMASEARRFTWLIDVLYDHKVKLLMSAEVPADALYTEGQMANEFHRTVSRIIEMQSREYLEAPRRAVDTTLTLEHHHHHH", "soluble on expression in E. coli", "not soluble"),
]

---

EXPERIMENT_SUMMARY: soluble on expression in E. coli; label from the status in PepcDB or PDB records
OBSERVATION_TYPE: soluble on expression in E. coli

# SEQUENCE_ENTRY, OBSERVATION_TYPE, DATA_VALUE
measured = [
    ("MFRVTCIDLENGEFALYINGHYLSSEDGSGEKLYLGDILERLSRLPGVTTETVERPVPDSDEWSWNDVADSVFPACITLSRNMTVAAFKQRLSRFPDDALCCGTFWLASDFLALDSSLTEDDIDAAMELAQHCHDANDGFNWSHLQWAIDEVKRGG", "soluble on expression in E. coli", "not soluble"),
    ("MGSDKIHHHHHHMVDFKEQQQRYWQLLHQPESLFLLHRANDVEHFIALMTDFLAWPELSLEHMLAFIALQQDSFIPDLDRFSQAWFPCRYHSQHKTVSWVPALHKLSKPFLEDDISDARRCLLASFIQPSTLLEPLLSQRESLPIVNPSLMIFHWSRCGSTLVSSSFALLETCRVLSESMLCSDVMHDDHWPLALKPQLVDLCLRLQGRLRLGERKLVIKWNAWDLACWPMLLELYPKSRVLCLIRNPKDIIDSHQRVAGRHMAGGQSLLPTELQTQQMENTDTEPSLDEFRTTVLQYLAQLSLALHQSSRVILLDYHQLTDFKPTTFSTILGWALSEGEIERWQHHWRFDAKQQGQLFTPVVPNEPVPIRECQNPSWQQLLITYNQLLQRLYWDKKA", "soluble on expression in E. coli", "not soluble"),
]

---

EXPERIMENT_SUMMARY: soluble on expression in E. coli; label from the status in PepcDB or PDB records
OBSERVATION_TYPE: soluble on expression in E. coli

# SEQUENCE_ENTRY, OBSERVATION_TYPE, DATA_VALUE
measured = [
    ("EDSKALDEVVVVAFGTQKKESMISSIETIKPAELKVPSSNLTTALAGRMSGVIAYQRSGEPGKDNADFFIRGVTTFGYKKDPLILIDGIETTTTELARLQPDDIAAFSILKDATATALYGARGANGVIQVATKEGKEGA", "soluble on expression in E. coli", "not soluble"),
    ("MGSDKIHHHHHHMINKHVISEKIKKAIVEANIKINPEVEEIIERYEGPFSDIIKENYRVSKEEKLPLCQDTGIVEFFVFIGHEVKLEEPIEETLNRAVGEVYSEYPFRYSVVSDPLFERINTGTNTPAIVHIFQVKGKSLEIRFLVKGGGSENLTVLRMMTPTSDVEKVKEFVIEHIKEHGAKACPPLHVGIGIGGTADKALLLSKLALTKSFKERNKDPKYAGLEKELEKELNFLGIGFQGLGKGITVYSVHIEHFPTHIATLPVAVSVDCYLCRRGKVTFED", "soluble on expression in E. coli", "not soluble"),
    ("MGHHHHHHSHPPTAPDRATAVATASRLGPYVLLEPEEGGRAYQALHCPTGTEYTCKVYPVQEALAVLEPYARLPPHKHVARPTEVLAGTQLLYAFFTRTHGDMHSLVRSRHRIPEPEAAVLFRQMATALAHCHQHGLVLRDLKLCRFVFADRERKKLVLENLEDSCVLTGPDDSLWDKHACPAYVGPEILSSRASYSGKAADVWSLGVALFTMLAGHYPFQDSEPVLLFGKIRRGAYALPAGLSAPARCLVRCLLRREPAERLTATGILLHPWLRQDPMPLAPTRSHLWEAAQVVPDGLGLDEARE", "soluble on expression in E. coli", "not soluble"),
]
